# assayed-target: Sigma 2 (h) (Homo sapiens (Human), UniProt Q5BJF2)
# Sequence (Q5BJF2 whole entry): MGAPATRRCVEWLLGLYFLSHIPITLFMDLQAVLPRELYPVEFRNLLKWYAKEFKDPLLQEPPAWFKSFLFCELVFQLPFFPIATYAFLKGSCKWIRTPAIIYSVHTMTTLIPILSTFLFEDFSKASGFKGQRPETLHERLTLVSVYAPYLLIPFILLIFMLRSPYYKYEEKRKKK
# assay-notes: Sigma-2 binding assay
# applied-conditions: [3H]DTG (+1 μM (+)pentazocine), Jurkat cells; read-out: Sigma-2 Ki
measured-quantity: Ki

Fill in the blank: the reported Ki of COC(=O)CCN1CCN(c2ccc3c(c2)CN(C(=O)OCc2ccccc2)CCC3(C)C)CC1 [Compound 9] is ____. 0.005 to 0.05 µM

Next entry: CN1CCN(c2ccc3c(c2)CN(C(=O)OCc2ccccc2)CC3(C)C)CC1 [Compound 1] 0.1 to 0.5 µM

Next entry: Cc1cc(-c2ccc3c(c2)CN(CCC(=O)N2CCc4ccccc4C2)CCC3(C)C)cc(C)n1 [Compound 111] 0.05 to 0.1 µM

Next entry: CC1(C)CN(C(=O)OC2CCCCC2)Cc2cc(N3CCN(C4CCCC4)CC3)ccc21 [Compound 43] 0.0001 to 0.005 µM

Next entry: CC(C)OC(=O)N1CCC(C)(C)c2ccc(N3CCN(C4CCCC4)CC3)cc2C1 [Compound 79] 0.005 to 0.05 µM

Next entry: CC1(C)CCN(CCCO)Cc2cc(-c3ccc(C(F)(F)F)cc3)ccc21 [Compound 11] 0.1 to 0.5 µM

Next entry: CC1(C)CN(C(=O)c2cc(F)cc(Cl)c2)Cc2cc(N3CCN(C4CCCC4)CC3)ccc21 [Compound 38] 0.0001 to 0.005 µM

Next entry: COC(=O)CCN1CCN(c2ccc3c(c2)CN(C(=O)OCc2ccccc2)CC3(C)C)CC1 [Compound 3] 0.005 to 0.05 µM
